Tested on: NALM-6;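 further: growth inhibition of NALM-6 cells, read out with a cell viability assay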
test_description: cells
Assay type: functional, cell-based, Homo sapiens
condition_summary: nalm-6
Description: SANGER: Inhibition of human NALM-6 cell growth in a cell viability assay.
pIC50: −log10 of the molar value. Where a SMILES comes first, the peptide text is derived from it. The star is where a group is joined. Cbz = O=C(OCc1ccccc1)*
measurement_name: pIC50

Param item = CC(C)C[C@@H](C=O)NC(=O)[C@H](CC(C)C)NC(=O)[C@H](CC(C)C)NC(=O)OCc1ccccc1 [MG-132] (Cbz-Leu-Leu-Leu-aldehyde) ; retrieve measured pIC50.
< 6.00

###

Test system: KP-N-YN
test_description: cells
Type: functional, cell-based
condition_summary: Homo sapiens
Description: SANGER: Inhibition of human KP-N-YN cell growth in a cell viability assay.
measurement_name: IC50

What does the record list as IC50 for `CC1=C(/C=C/C(C)=C/C=C/C(C)=C/C(=O)O)C(C)(C)CCC1` ?
> 10 µM

Same question for `CCCCCCCCCCCC1=C(O)C(=O)C=C(O)C1=O` please.
> 32 µM

Follow-up entry: `C/C(=C\c1csc(C)n1)[C@@H]1C[C@@H]2O[C@]2(C)CCC[C@H](C)[C@H](O)[C@@H](C)C(=O)C(C)(C)[C@@H](O)CC(=O)O1`
> 0.032 µM

Now try `OC[C@H](Cc1ccccc1)Nc1nc(Oc2ccc3c(c2)CCC3)nc2c1ncn2Cc1ccc(-c2ccccc2)cc1` .
> 10.2 µM

Next: `CN(C)CCOc1ccc(-c2nc(-c3ccncc3)c(-c3ccc4c(c3)CC/C4=N\O)[nH]2)cc1`
> 5 µM

Also `O=C1NC(=O)c2c1c(-c1ccccc1Cl)cc1[nH]c3ccc(O)cc3c21` , if possible.
> 2 µM

###

Consider the following compounds; for each one, report its IC50.
Tested on: 8305C
test_description: cells
Assay type: functional, cell-based
condition_summary: Homo sapiens
Description: SANGER: Inhibition of human 8305C cell growth in a cell viability assay.

Looking for the measured IC50 of `O=S(=O)(O)c1ccc2cc(/N=N/c3cc(S(=O)(=O)O)c4cccnc4c3O)ccc2c1` , can you help?
> 16 µM

Input CC1=C(/C=C/C(C)=C/C=C/C(C)=C/C(=O)O)C(C)(C)CCC1 [TRETINOIN]
> 10 µM

Moving on to the next compound: `OC[C@H](Cc1ccccc1)Nc1nc(Oc2ccc3c(c2)CCC3)nc2c1ncn2Cc1ccc(-c2ccccc2)cc1`
2.76 µM

Do the same for `O=C1NC(=O)c2c1c(-c1ccccc1Cl)cc1[nH]c3ccc(O)cc3c21` please
> 2 µM

What do you have for NC(=O)c1ccc(N(C(N)=O)c2c(F)cccc2F)nc1-c1ccc(F)cc1F [VX-702] ?
> 2 µM

###

System: KYSE-520 cell line;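 further: growth inhibition of human KYSE-520 cells, read out with a viability assay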
test_description: cells
Type: functional, cell-based
condition_summary: Homo sapiens
Description: SANGER: Inhibition of human KYSE-520 cell growth in a cell viability assay.
Provide the recorded pIC50 for the entries that follow.
Conceptually, pIC50 converts a concentration in mol/L into minus its log10.

What value of measured pIC50 is listed for `CCCCCCCCCCCC1=C(O)C(=O)C=C(O)C1=O` ?
4.73

// repeat for `CN(NC(=O)CC(=O)NN(C)C(=S)c1ccccc1)C(=S)c1ccccc1` and report
6.98

What do you have for `NC(=O)Nc1cc(-c2cccc(F)c2)sc1C(=O)N[C@H]1CCCNC1` ?
6.08

Here is the next compound: `O=C(NOC[C@H](O)CO)c1ccc(F)c(F)c1Nc1ccc(I)cc1F`
6.63

###

Test system: HGC-27;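 further: growth inhibition of human HGC-27 cells, read out in a cell viability assay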
test_description: cells
Format: functional, cell-based
condition_summary: Homo sapiens
Description: SANGER: Inhibition of human HGC-27 cell growth in a cell viability assay.
For each record, write down the corresponding pIC50.
Units for pIC50: none; it is -log10 of a concentration expressed in mol/L.

Name the recorded pIC50 for `NC1(c2ccc(-c3nc4ccn5c(=O)[nH]nc5c4cc3-c3ccccc3)cc2)CCC1` .
6.25

Would you mind doing `NC(=O)Nc1cc(-c2cccc(F)c2)sc1C(=O)N[C@H]1CCCNC1` as well?
6.31

Next: `C/C(=C\c1csc(C)n1)[C@@H]1C[C@@H]2O[C@]2(C)CCC[C@H](C)[C@H](O)[C@@H](C)C(=O)C(C)(C)[C@@H](O)CC(=O)O1`
9.47

###

System: MZ1-PC;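 further: cell viability assay measuring growth inhibition of human MZ1-PC cells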
test_description: cells
Format: functional, cell-based, Homo sapiens
condition_summary: mz1-pc
Description: SANGER: Inhibition of human MZ1-PC cell growth in a cell viability assay.
Where a SMILES comes first, the peptide text is derived from it. The star is where a group is joined. Cbz = O=C(OCc1ccccc1)*
measurement_name: IC50

GET /values?readout=IC50&item= CC(C)C[C@@H](C=O)NC(=O)[C@H](CC(C)C)NC(=O)[C@H](CC(C)C)NC(=O)OCc1ccccc1 [MG-132] (Cbz-Leu-Leu-Leu-aldehyde)
> 1 µM

###

Tested on: RVH-421
test_description: cells
Format: functional, cell-based
condition_summary: Homo sapiens
Description: SANGER: Inhibition of human RVH-421 cell growth in a cell viability assay.
measurement_name: IC50

Which measured IC50 value corresponds to `OC[C@H](Cc1ccccc1)Nc1nc(Oc2ccc3c(c2)CCC3)nc2c1ncn2Cc1ccc(-c2ccccc2)cc1` ?
> 10.2 µM

Also O=C(NCCCNc1nc(Nc2cccc(NC(=O)N3CCCC3)c2)ncc1I)c1cccs1 [BX-795] ?
> 5 µM

One more compound: NC(=O)c1ccc(N(C(N)=O)c2c(F)cccc2F)nc1-c1ccc(F)cc1F [VX-702]
> 2 µM

NC(=O)Nc1cc(-c2cccc(F)c2)sc1C(=O)N[C@H]1CCCNC1 [AZD-7762] ?
1.19 µM

###

Tested on: TE-6
test_description: cells
Format: functional, cell-based, Homo sapiens
condition_summary: Homo sapiens, TE-6
Description: SANGER: Inhibition of human TE-6 cell growth in a cell viability assay.
pIC50: −log10 of the molar value.
measurement_name: pIC50

Reported pIC50 for `O=C1NC(=O)c2c1c(-c1ccccc1Cl)cc1[nH]c3ccc(O)cc3c21` : what is it?
< 5.70

What would you report for `COC(=O)[C@H](CCSC)NC(=O)c1ccc(NC[C@@H](N)CS)cc1-c1ccccc1` ?
< 5.99

Now consider `Nc1ccccc1NC(=O)c1ccc(CNC(=O)OCc2cccnc2)cc1` .
< 5.30

Let us now turn to `NC(=O)Nc1cc(-c2cccc(F)c2)sc1C(=O)N[C@H]1CCCNC1`
< 5.70

Same question for `O=S(=O)(O)c1ccc2cc(/N=N/c3cc(S(=O)(=O)O)c4cccnc4c3O)ccc2c1` please.
< 4.80

###

Test system: HTC-C3
test_description: cells
Format: functional, cell-based
condition_summary: Homo sapiens
Description: SANGER: Inhibition of human HTC-C3 cell growth in a cell viability assay.
measurement_name: pIC50
Just so you know, pIC50 here is -log10 of the concentration in molar units; reply with that number alone.

So what's the measured pIC50 for this one? `NC(=O)Nc1cc(-c2cccc(F)c2)sc1C(=O)N[C@H]1CCCNC1`
6.08

###

For each of the molecules below, state its pIC50.
Tested on: TE-5;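 further: inhibition of cell growth, read out by a cell viability assay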
test_description: cells
Assay type: functional, cell-based, Homo sapiens
condition_summary: Homo sapiens, TE-5
Description: SANGER: Inhibition of human TE-5 cell growth in a cell viability assay.
pIC50: −log10 of the molar value.

pIC50 for `Cc1cc(N2CCOCC2)cc2[nH]c(-c3c(NC[C@@H](O)c4cccc(Cl)c4)cc[nH]c3=O)nc12` ?
< 5.29

Another: `Nc1ccccc1NC(=O)c1ccc(CNC(=O)OCc2cccnc2)cc1`
5.49

Would you mind doing `C[C@@H](Oc1cc(-c2cnn(C3CCNCC3)c2)cnc1N)c1c(Cl)ccc(F)c1Cl` as well?
< 5.70

###

Tested on: LNCaP-Clone-FGC
test_description: cells
Format: functional, cell-based, Homo sapiens
condition_summary: Homo sapiens, LNCaP-Clone-FGC
Description: SANGER: Inhibition of human LNCaP-Clone-FGC cell growth in a cell viability assay.
pIC50: −log10 of the molar value.
For each record, write down the corresponding pIC50.

Name the reported pIC50 value associated with the molecule `O=C1NC(=O)c2c1c(-c1ccccc1Cl)cc1[nH]c3ccc(O)cc3c21`
< 5.70

Same question, `COc1ccc(N(C(=O)Oc2c(C)cccc2C)c2ccnc(Nc3ccc(N4CCN(C)CC4)cc3)n2)c(OC)c1` this time
< 5.29

How about this molecule: `Cc1ccc(-n2nc(C(C)(C)C)cc2NC(=O)Nc2ccc(OCCN3CCOCC3)c3ccccc23)cc1`
< 5.00

Can you check `O=S(=O)(O)c1ccc2cc(/N=N/c3cc(S(=O)(=O)O)c4cccnc4c3O)ccc2c1` next?
< 4.80

Please do the same for `COC(=O)[C@H](CCSC)NC(=O)c1ccc(NC[C@@H](N)CS)cc1-c1ccccc1` as well.
< 5.99

Input C=CC(=O)N1CCCC(Nc2nc(Nc3ccc(N(C)C(=O)CC)cc3)nc3[nH]cnc23)C1 (centres undefined)
< 4.99

Again, but for `CC(C)C[C@H](NC(=O)[C@H](Cc1ccccc1)NC(=O)c1cnccn1)B(O)O`
< 7.70

And the next one, `COc1ccc(-c2cc3nccn3c(Nc3ncccc3C(N)=O)n2)cc1OC` ?
5.66

Lookup `CCCCCCCCCCCC1=C(O)C(=O)C=C(O)C1=O`
4.66

###

Would you kindly list pIC50 for each of these molecules?
Test system: A673
test_description: cells
Type: functional, cell-based
condition_summary: Homo sapiens
Description: SANGER: Inhibition of human A673 cell growth in a cell viability assay.
pIC50: −log10 of the molar value.

Request - read-out pIC50 | tested on A673 | molecule `CC1=C(/C=C/C(C)=C/C=C/C(C)=C/C(=O)O)C(C)(C)CCC1`;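 further: growth inhibition of human A673 cells, read out through a cell viability assay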
< 5.00

What about this molecule? `CS(=O)(=O)N1CCN(Cc2cc3nc(-c4cccc5[nH]ncc45)nc(N4CCOCC4)c3s2)CC1`
< 5.40

Next entry: `Cc1ccc(C(=O)Nc2ccc(CN3CCN(C)CC3)c(C(F)(F)F)c2)cc1C#Cc1cnc2cccnn12`
< 6.29

Continue with `O=S(=O)(O)c1ccc2cc(/N=N/c3cc(S(=O)(=O)O)c4cccnc4c3O)ccc2c1`
< 4.80

Next: `C/C(=C\c1csc(C)n1)[C@@H]1C[C@@H]2O[C@]2(C)CCC[C@H](C)[C@H](O)[C@@H](C)C(=O)C(C)(C)[C@@H](O)CC(=O)O1`
8.61

Okay, and `COC(=O)[C@H](CCSC)NC(=O)c1ccc(NC[C@@H](N)CS)cc1-c1ccccc1` ?
< 5.99

Could you do the same for `O=C(NCCCNc1nc(Nc2cccc(NC(=O)N3CCCC3)c2)ncc1I)c1cccs1` , please?
< 5.30
